studySystem: Peroxisome proliferator-activated receptor gamma (Homo sapiens)
assay: Transactivation of full length human FLAG-tagged PPARgamma1 LBD expressed in rat Ac2F cells at 5 to 10 uM after 6 hrs by luciferase reporter gene assay
Type: cell-based
Activity calls are given as the source filed them. No cut-off for these calls is given here.
Tick one outcome: YES = active, NO = inactive

The examples below pair each entry with its known result.
COC(=O)CC1CCC(=O)/C1=C/CCc1ccccc1 (centres undefined): NO
CCCCCCC=C1C(=O)CCC1CC(=O)OC (centres undefined): NO
COC(=O)CC1CCC(=O)/C1=C/C1CCCCC1 (centres undefined): YES
CCC=C1C(=O)CCC1CC(=O)OC (centres undefined): NO
CCCCCCCCC=C1C(=O)CCC1CC(=O)OC (centres undefined): NO

So what was the verdict on COC(=O)CC1CCC(=O)C1=CC(OC)OC (centres undefined) in this test?
YES

I'd appreciate the recorded outcome for COC(=O)CC1CCC(=O)C1=CC1CCCCC1 (centres undefined) from this test.
YES

Please indicate how the test categorized CCOC(=O)CC1CCC(=O)/C1=C/C1CCCCC1 (centres undefined) .
YES

Hi team, can someone confirm the assay call for COC(=O)CC1CCC(=O)C1=CC1CCCC1 (centres undefined) ?
YES

---

studySystem: Peroxisome proliferator-activated receptor gamma (Homo sapiens) (UniProt P37231)
Sequence (whole entry): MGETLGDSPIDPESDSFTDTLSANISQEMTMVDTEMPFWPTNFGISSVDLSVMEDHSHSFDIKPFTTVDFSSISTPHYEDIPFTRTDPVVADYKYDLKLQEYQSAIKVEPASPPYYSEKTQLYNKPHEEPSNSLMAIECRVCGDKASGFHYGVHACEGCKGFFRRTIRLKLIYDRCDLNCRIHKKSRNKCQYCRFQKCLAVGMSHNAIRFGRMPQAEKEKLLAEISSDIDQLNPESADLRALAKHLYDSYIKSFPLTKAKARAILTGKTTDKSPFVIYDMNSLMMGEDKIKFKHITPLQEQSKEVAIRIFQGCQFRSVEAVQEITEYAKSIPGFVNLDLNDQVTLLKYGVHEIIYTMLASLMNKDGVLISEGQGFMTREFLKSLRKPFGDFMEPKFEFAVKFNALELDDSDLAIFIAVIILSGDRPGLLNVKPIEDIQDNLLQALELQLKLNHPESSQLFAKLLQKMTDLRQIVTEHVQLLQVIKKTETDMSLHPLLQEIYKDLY
assay: Transactivation of full length human FLAG-tagged PPARgamma1 LBD expressed in rat Ac2F cells at 5 to 10 uM after 6 hrs by luciferase reporter gene assay
Type: cell-based
Active and inactive are the calls of the source. No cut-off for these calls is given here.
assayReadout: Activity

Known results for compounds:
CCOC(=O)C[C@H]1CCC(=O)/C1=C/C1CCCCC1: Active
CCCCCCCC=C1C(=O)CCC1CC(=O)OC (stereo not drawn): inactive
COC(=O)CC1CCC(=O)C1CC1CCCCC1 (stereo not drawn): inactive
CCCCC(C=C1C(=O)CCC1CC(=O)OC)CC (stereo not drawn): Active
COC(=O)CC1CCC(=O)C1=CCC(C)C (stereo not drawn): Active

Short answer for CCCC=C1C(=O)CCC1CC(=O)OC (stereo not drawn) : Activity was inactive

Per the records, this compound ( CCCCC=C1C(=O)CCC1CC(=O)OC (stereo not drawn) ) has Activity equal to inactive

Documented Activity of COC(=O)CC1CCC(=O)C1=CC(c1ccccc1)c1ccccc1 (stereo not drawn) : inactive

The compound listed as O=C(O)CC1CCC(=O)/C1=C/C1CCCCC1 (stereo not drawn) shows Activity equal to Active

Entry COC(=O)CC1CCC(=O)C1=CCc1ccccc1 (stereo not drawn) , Activity reported as Active

Recorded Activity (compound COC(=O)CC1CCC(=O)/C1=C\CCc1ccccc1 (stereo not drawn) ): inactive

The compound identified as `CCOC(=O)C[C@@H]1CCC(=O)/C1=C/C1CCCCC1` registered its Activity at Active

Activity reading for COC(=O)CC1CCC(=O)C1=CC(C)c1ccccc1 (stereo not drawn) : inactive
